Biological target: DNA dC->dU-editing enzyme APOBEC-3G (Homo sapiens, UniProt Q9HC16)
Sequence (Q9HC16 whole entry): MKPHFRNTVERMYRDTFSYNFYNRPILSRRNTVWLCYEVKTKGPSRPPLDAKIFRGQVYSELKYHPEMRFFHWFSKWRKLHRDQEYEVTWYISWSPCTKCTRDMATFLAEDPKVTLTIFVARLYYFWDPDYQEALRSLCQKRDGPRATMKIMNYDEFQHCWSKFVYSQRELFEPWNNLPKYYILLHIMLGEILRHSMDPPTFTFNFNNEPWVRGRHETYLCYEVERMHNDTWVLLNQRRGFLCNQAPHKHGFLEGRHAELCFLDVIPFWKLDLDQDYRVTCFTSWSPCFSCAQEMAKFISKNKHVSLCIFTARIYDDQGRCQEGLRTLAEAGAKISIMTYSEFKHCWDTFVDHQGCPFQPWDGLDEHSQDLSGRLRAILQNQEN
Test: Dose Response confirmation of small molecule APOBEC3G DNA Deaminase Inhibitors via a fluorescence-based single-stranded DNA deaminase assay. [Related pubchem assays (depositor defined):AID493012, AID493028]
Type: functional
Activity calls are given as the source filed them.
measurement-kind: IC50

The reported DNA dC->dU-editing enzyme APOBEC-3G (Homo sapiens, UniProt Q9HC16) IC50 of `Cc1[nH]c2nc(S)nc-2cc1Br` is 1.98 µM (active)

Item `CC(C)Cn1c(-c2ccccc2F)n[nH]c1=S` ; assay system DNA dC->dU-editing enzyme APOBEC-3G (Homo sapiens, UniProt Q9HC16); IC50 reported as 5.39 µM (active)

Item `COc1ccccc1NS(=O)(=O)c1cc(N)ccc1N1CCCCC1` ; assay system DNA dC->dU-editing enzyme APOBEC-3G (Homo sapiens, UniProt Q9HC16); IC50 reported as 72.5 µM (active)

Result for `CCOC(=O)c1cc(C)nc(S)c1C#N` , tested on DNA dC->dU-editing enzyme APOBEC-3G (Homo sapiens, UniProt Q9HC16), IC50: 4.65 µM (active)

###

Test: viability of uninfected HEp-2 cells – cell-based, HTS, cytotoxicity control for RSV inhibitor project, dose response (AID 2410)
Type: functional
Details: human respiratory syncytial virus
Calls of active or inactive are those of the source.
measurement-kind: CC50

# example entries with known answers
- compound: "CCN1C=C(Cc2ccccc2C)C2=C(C1)C(c1ccccc1C)C(C#N)=C(N)O2 (stereo unspecified)"
  CC50: "13.1 µM (active)"
- compound: "CC(C)C[C@H](CO)Nc1nc(Nc2cccc(Cl)c2)c2ncn(C(C)C)c2n1"
  CC50: "44.4 µM (active)"
- compound: "Cn1nc(-c2ccccc2F)c2cc(C(=O)Nc3ccc4c(c3)OCCO4)sc21"
  CC50: "26.9 µM (active)"
- compound: "Cc1ccc(Nc2nc(Cl)c(C=O)s2)cc1Cl"
  CC50: "19.2 µM (active)"
- compound: "Cc1cc(-n2nnc3ccccc32)nc2ccccc12"
  CC50: "19.1 µM (active)"

// switching to the query compound
Summary for this compound, `CCOC(=O)c1c(C)[nH]c(C(=O)/C(C#N)=C/c2ccc(OC)c(OC)c2)c1C` : CC50 is > 50 µM (active)

###

Target: Calpain-2 catalytic subunit (Sus scrofa, UniProt P43367)
Sequence (P43367 whole entry): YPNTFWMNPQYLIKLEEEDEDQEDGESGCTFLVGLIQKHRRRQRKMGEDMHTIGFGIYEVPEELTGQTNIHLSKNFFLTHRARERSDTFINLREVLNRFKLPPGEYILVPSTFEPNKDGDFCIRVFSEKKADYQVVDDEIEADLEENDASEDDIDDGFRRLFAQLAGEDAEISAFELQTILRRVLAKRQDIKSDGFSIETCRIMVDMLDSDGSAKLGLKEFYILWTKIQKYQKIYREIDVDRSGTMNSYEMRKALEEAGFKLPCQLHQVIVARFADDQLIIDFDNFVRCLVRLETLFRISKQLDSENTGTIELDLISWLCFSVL
Experiment: m-calpain protease blockers, concentration series – biochemical, fluorogenic peptide substrate, dose response (AID 1420)
Type: functional
List of IC50 values.

Answered examples (2):
- chemical-string: "O=c1c(Cl)c(N2CCN(c3ccc(F)cc3)CC2)cnn1C12CC3CC(CC(C3)C1)C2"
  IC50: "> 50 µM (not active)"
- chemical-string: "O=S(=O)(Nc1ccc(-c2csc(-c3ccccc3)n2)cc1)c1ccc(F)cc1"
  IC50: "8.02 µM (not active)"

The reported Calpain-2 catalytic subunit (Sus scrofa, UniProt P43367) IC50 of `Cn1c(N)c(C(=O)COC(=O)c2ccc(Cl)c(S(=O)(=O)N3CCCCC3)c2)c(=O)n(C)c1=O` is 29.2 µM (not active)

Record `Cc1cc(N2CCCCC2)nc2ccc(NC(=O)c3ccc(Br)o3)cc12` / Calpain-2 catalytic subunit (Sus scrofa, UniProt P43367), IC50 recorded as 3.3 µM (not active)
